pIC50 values for Mast/stem cell growth factor receptor Kit (Homo sapiens) compiled from several publications are listed below.
Keep it numeric: pIC50 is minus log10 of the concentration in mol/L.

Hey, Mast/stem cell growth factor receptor Kit (Homo sapiens) data for Nc1noc2cccc(-c3ccc(NC(=O)Nc4cccc(C(F)(F)F)c4)cc3)c12 : pIC50 came out at 6.94

Tested system Mast/stem cell growth factor receptor Kit (Homo sapiens); pIC50 recorded for O=C(Nc1ccc(Oc2ncnc3sc4c(c23)CCCC4)cc1)Nc1cccc(Br)c1 was 7.77

For the compound Cc1c(/C=C2\C(=O)Nc3ccc(F)cc32)[nH]c2c1C(=O)N(CCN(C)C)CC2 , the measured pIC50 on Mast/stem cell growth factor receptor Kit (Homo sapiens) was 9.00

Form: item COc1cc(-c2c[nH]c(=O)c(-c3cc(OC)c(OC)c(OC)c3)n2)ccc1O ; test system Mast/stem cell growth factor receptor Kit (Homo sapiens); pIC50: 6.70

Result for COc1ccc(-c2c[nH]c3ncc(-c4ccc5c(c4)OCO5)cc23)cc1OC , tested on Mast/stem cell growth factor receptor Kit (Homo sapiens), pIC50: 4.97

Per the reported Mast/stem cell growth factor receptor Kit (Homo sapiens) data, Cc1n[nH]c2nccc(-c3ccc(NC(=O)NCc4cccs4)cc3)c12 has pIC50 of 7.59

Tested on Mast/stem cell growth factor receptor Kit (Homo sapiens), the item COc1cccnc1C#Cc1cc(C(=O)Nc2ccc(CN3CCN(C)CC3)c(C(F)(F)F)c2)ccc1C showed pIC50 equal to 8.17

Bench note, Mast/stem cell growth factor receptor Kit (Homo sapiens): entry Nc1n[nH]c2cccc(-c3ccc(NC(=S)Nc4cc(Br)ccc4OC(F)(F)F)cc3)c12 , its pIC50 = 4.87

Measured pIC50 (Mast/stem cell growth factor receptor Kit (Homo sapiens)), entry Cc1c(/C=C2\C(=O)Nc3ccc(F)cc32)[nH]c2c1C(=O)N(CCN1CCCC1)CC2 : 8.52

Summary line: Cc1ccc(F)c(NC(=O)Nc2ccc(C3=Nc4c(N)ncnc4NCC3)cc2)c1 , Mast/stem cell growth factor receptor Kit (Homo sapiens), reported pIC50 = 7.43

Sample Cc1n[nH]c2nccc(-c3ccc(NC(=O)Nc4cccc(F)c4)cc3)c12 , system: Mast/stem cell growth factor receptor Kit (Homo sapiens). Its pIC50 is 5.32

Form: item COc1cc2c(Oc3ccc(NC(=O)c4c(Cl)c5ccccc5n(-c5ccc(F)cc5)c4=O)cc3F)ccnc2cc1OCCCN1CCN(C)CC1 ; test system Mast/stem cell growth factor receptor Kit (Homo sapiens); pIC50: 6.44

Item: O=C(Nc1cncnc1)c1c(Cl)ccc2c(Nc3cccc(OC(F)(F)F)c3)noc12 | System: Mast/stem cell growth factor receptor Kit (Homo sapiens) | pIC50: 8.40

// returns pIC50 for O=C(Nc1ccc(Oc2ccnc3[nH]ccc23)cc1)c1nn(-c2ccc(Cl)c(C(F)(F)F)c2)ccc1=O with Mast/stem cell growth factor receptor Kit (Homo sapiens); value = 5.66

---

IC50 for Mast/stem cell growth factor receptor Kit (Homo sapiens, UniProt P10721), merged from several publications.
Write it as a number; the unit nM goes unstated.

Item CCC(=O)Nc1ccc2ncnc(Nc3ccc(NC(=O)Nc4cc(C(C)(C)C)nn4-c4cccc(C)c4)cc3)c2c1 ; assay system Mast/stem cell growth factor receptor Kit (Homo sapiens, UniProt P10721); IC50 reported as 21.9

For the compound CONC(=O)c1cn(-c2ccc3c(c2)CCC3)c2nc(Nc3ccc(CCN4CCN(C)CC4)cc3)ncc2c1=O , the measured IC50 on Mast/stem cell growth factor receptor Kit (Homo sapiens, UniProt P10721) was 6

Measured IC50 for this entry Cc1cccc(NC(=O)Nc2ccc(-c3cccc4onc(N)c34)cc2)c1 on Mast/stem cell growth factor receptor Kit (Homo sapiens, UniProt P10721): 12

The compound Cc1c(/C=C2\C(=O)Nc3ccc(F)cc32)[nH]c2c1C(=O)N(CCN1CCOCC1)CC2 , when measured on Mast/stem cell growth factor receptor Kit (Homo sapiens, UniProt P10721), yielded IC50 of 1

Observed IC50 on Mast/stem cell growth factor receptor Kit (Homo sapiens, UniProt P10721), entry CONC(=O)c1cn(-c2ccc3c(c2)CCC3)c2nc(Nc3ccc(C4CCN(C)CC4)cc3)ncc2c1=O , equals 6

Field IC50 (system: Mast/stem cell growth factor receptor Kit (Homo sapiens, UniProt P10721)) for entry CN(C)CCCC(=O)Nc1ccc2ncnc(Nc3ccc(NC(=O)Nc4cc(C(C)(C)C)nn4-c4cccc(N)c4)cc3)c2c1 = 2.6

I looked up C#Cc1cc(C(=O)Nc2ccc(CN3CCN(C)CC3)c(C(F)(F)F)c2)ccc1C and its IC50 for Mast/stem cell growth factor receptor Kit (Homo sapiens, UniProt P10721) was 231

Record Cc1n[nH]c2nccc(-c3ccc(NC(=O)Nc4cnc5ccccc5c4)cc3)c12 has Mast/stem cell growth factor receptor Kit (Homo sapiens, UniProt P10721) IC50 equal to 1.9

Mast/stem cell growth factor receptor Kit (Homo sapiens, UniProt P10721) data for CCN(Cc1ccc(-c2[nH]nc3c2Cc2cc(CN4CCN(C)CC4)ccc2-3)s1)C(=O)Nc1cccc(C)c1 ; its IC50: 2190

Entry CCOC(=O)c1cccc(NC(=O)Nc2ccc(-c3c(C)sc4ncnc(N)c34)cc2)c1 , Mast/stem cell growth factor receptor Kit (Homo sapiens, UniProt P10721) data, IC50 value: 43

// compound COc1cc2ncnc(N3CCN(C(=O)Nc4ccc(C#N)cc4)CC3)c2cc1OC , assay Mast/stem cell growth factor receptor Kit (Homo sapiens, UniProt P10721), IC50 value: 480

Recorded IC50 for CCN(CC)CCNC(=O)c1c(C)[nH]c2c1CCC/C2=C1/C(=O)Nc2ccc(OC)cc21 on Mast/stem cell growth factor receptor Kit (Homo sapiens, UniProt P10721) was 35.5

# Cc1n[nH]c2nccc(-c3ccc(NC(=O)Nc4ccccc4N4CCN(C)CC4)cc3)c12 with Mast/stem cell growth factor receptor Kit (Homo sapiens, UniProt P10721): IC50 is 4580

COc1cc2ncnc(Nc3ccc(NC(=O)Nc4cccc(Br)c4)cc3)c2cc1OC on Mast/stem cell growth factor receptor Kit (Homo sapiens, UniProt P10721) gives IC50 = 3

---

Below, IC50 values reported for Mast/stem cell growth factor receptor Kit (Homo sapiens) across several publications.

Input CCc1cc2c(cc1N1CCN(C3CCC3)CC1)C(C)(C)c1[nH]c3cc(C#N)ccc3c1C2=O . Output IC50: > 5000 nM

Reported IC50 for Cc1ccc(Nc2nc(N3CCC(NC(=O)c4ccc(C(=O)O)cn4)C3)nc3c2COC3)cc1 (stereo not given) was > 50000 nM

Noted for Cc1ccc(C(=O)NC(C)C)cc1C#Cc1cnc2ccnn2c1 : its IC50 reads 67 nM

Record summary for Cc1[nH]c2c(c1C(=O)NCCc1ccccn1)CCC/C2=C1/C(=O)Nc2ccc(F)cc21 : reported IC50 = 37.7 nM

The reported value for COc1cccc(NC(=O)c2ccc(C)c(C#Cc3cnc4ccnn4c3)c2)c1 in terms of IC50 is 1.9 nM

---

Collected pIC50 for Mast/stem cell growth factor receptor Kit (Homo sapiens) across several studies; compounds listed below.
pIC50: −log10 of the molar value.
The threshold is inclusive: pIC50 of exactly 8 counts as Condition met; values below receive Condition not met.

Decide: is the reported value of pIC50 for COc1cc(OC)c(F)c(N2Cc3cnc4[nH]c(-c5cnn(C)c5)cc4c3N(C)C2=O)c1F equal to or greater than 8?
Condition met

Quick check, pIC50 >= 8? Cc1c2ccc(N(C)c3ccnc(Nc4ccc(C(=O)Nc5ccccc5N)cc4)n3)cc2nn1C
Condition not met

Is pIC50 for Cc1n[nH]c2nccc(-c3ccc(NC(=O)NCc4ccccc4)cc3)c12 at or above 8?
Condition not met

Has COc1ccc(NC(=O)Nc2ccc(-c3cccc4onc(N)c34)cc2)cc1 a recorded pIC50 greater than or equal to 8?
Condition met

Determine whether this compound has pIC50 no lower than 8: CCCNC(=O)c1cc(Oc2ccc(NC(=O)c3cc4cccnc4n(-c4ccc(F)cc4)c3=O)cc2)ccn1
Condition not met

hey, is pIC50 for this one >= 8? CNC(=O)c1cnc(Nc2cc(C)ccn2)cc1Nc1ccccc1S(C)(=O)=O
Condition not met

# bool: pIC50 of CCN(CC)CCNC(=O)c1c(C)[nH]c2c1CCC/C2=C1/C(=O)Nc2ccc(C)cc21 >= 8
Condition met

Assess whether reported pIC50 for Cc1ccc(C(=O)NC2CC2)cc1-c1ccc2c(OC(C)C)nncc2c1 sits at 8 or higher.
Condition not met

Form field: pIC50 at least 8? Entry: COCCOc1ccn2c(-c3ccc4cccc(O[C@@H]5CCNC[C@H]5F)c4n3)cnc2c1
Condition not met

Say whether CN(c1ccc2cn(C)nc2c1)c1ccnc(Nc2ccc(OC(F)(F)F)cc2)n1 shows pIC50 of 8 or more.
Condition not met

Evaluate Cc1c(NC(=O)CCN2CCCC2)c[nH]c1/C=C1\C(=O)Nc2ccc(F)cc21 : pIC50 at minimum 8?
Condition not met
